Target: hERG (Homo sapiens)
Sequence (Q12809 whole entry): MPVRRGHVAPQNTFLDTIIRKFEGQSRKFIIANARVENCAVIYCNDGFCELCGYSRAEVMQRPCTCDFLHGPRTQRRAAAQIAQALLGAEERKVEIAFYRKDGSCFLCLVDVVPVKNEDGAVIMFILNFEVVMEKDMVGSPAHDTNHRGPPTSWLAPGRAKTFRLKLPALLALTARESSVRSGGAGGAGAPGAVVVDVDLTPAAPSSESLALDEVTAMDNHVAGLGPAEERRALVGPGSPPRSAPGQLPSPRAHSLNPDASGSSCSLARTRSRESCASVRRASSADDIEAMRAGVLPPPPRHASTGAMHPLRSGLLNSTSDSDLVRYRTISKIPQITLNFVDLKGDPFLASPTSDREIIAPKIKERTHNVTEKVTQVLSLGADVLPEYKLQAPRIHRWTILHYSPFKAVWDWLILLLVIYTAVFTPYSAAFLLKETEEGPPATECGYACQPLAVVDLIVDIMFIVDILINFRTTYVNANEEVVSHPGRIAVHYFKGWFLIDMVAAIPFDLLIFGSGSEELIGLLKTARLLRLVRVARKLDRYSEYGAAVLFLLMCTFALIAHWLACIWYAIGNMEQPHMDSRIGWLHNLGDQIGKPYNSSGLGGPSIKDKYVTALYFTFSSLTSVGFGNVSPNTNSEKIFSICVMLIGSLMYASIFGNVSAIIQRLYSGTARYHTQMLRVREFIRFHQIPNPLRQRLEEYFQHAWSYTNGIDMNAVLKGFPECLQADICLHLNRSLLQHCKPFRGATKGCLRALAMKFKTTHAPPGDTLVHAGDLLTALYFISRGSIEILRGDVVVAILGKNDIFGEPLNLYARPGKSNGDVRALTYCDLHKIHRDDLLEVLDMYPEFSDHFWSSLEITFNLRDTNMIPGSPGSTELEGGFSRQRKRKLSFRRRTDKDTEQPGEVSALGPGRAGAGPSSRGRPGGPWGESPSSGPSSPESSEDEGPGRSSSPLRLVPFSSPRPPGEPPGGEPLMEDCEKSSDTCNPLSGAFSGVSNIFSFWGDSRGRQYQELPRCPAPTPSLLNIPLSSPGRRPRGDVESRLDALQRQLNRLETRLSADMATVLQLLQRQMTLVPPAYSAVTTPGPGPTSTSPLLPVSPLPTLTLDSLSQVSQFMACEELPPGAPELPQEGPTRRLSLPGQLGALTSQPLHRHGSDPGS
Assay: Inhibition of human ERG at 10 uM
quantityName: inhibition at 10 µM (%)
Answers are plain numbers, in %.

Dear colleague, could you send me inhibition at 10 µM for each of the items below? Thanks.
1. CC(C)(O)c1c(F)ccc(-c2ccc3nc(-c4ccc(Cl)cc4)cn3c2)c1F
2. OCc1c(F)ccc(-c2ccc3nc(-c4ccc(Cl)cc4)cn3c2)c1F

RESULT:
1: 70; 2: 24

====

Assay: Solubility of the compound by HPLC analysis
Type: physicochemical
quantityName: solubility

Okay, here is my list. What is solubility for each of these?
1. O=C(Nc1ccccc1)c1cn2cc(-c3ccccn3)ccc2n1
2. OCc1cccc(-c2ccc3nc(-c4ccc(Cl)cc4)cn3c2)c1

RESULT:
["< 1 µM", "< 1 µM"]

Values compiled from ChEMBL document CHEMBL4368940.
